These measurements were taken from ChEMBL document CHEMBL5058577.

Test system: Fibroblast
Assay: Multiplex assay against human fibroblast
Type: toxicity, cell-based
Settings: 48 h, 10 µM, compound concentration 10 uM, replicate 2
Could you please report measured Population Healthy Nuclei (%) for the items listed next?
Give a bare numeral; the unit % is implied.

Q: Return Population Healthy Nuclei (%) (reported value) for this molecule: CN(C)CCCc1cc(C(=O)Nc2ccc(-c3ccncc3)cc2)ccc1O.Cl.Cl
Ans: 53

Q: Tell us which Population Healthy Nuclei (%) value is on record for c1cc(OCCCN2CCCCC2)ccc1CN1CCCCC1 [JNJ-5207852]
Ans: 41

Q: State its Population Healthy Nuclei (%) for this molecule: O=C(O)Cc1ccccc1Nc1c(Cl)cccc1Cl [DICLOFENAC]
Ans: 50

Q: Using the record for CC(C)(C)c1ccc(S(=O)(=O)Nc2ccc(Cl)cc2C(=O)c2cc[n+]([O-])cc2)cc1 [VERCIRNON] , state its measured Population Healthy Nuclei (%).
Ans: 46

---

Tested on: U2OS
Assay: Multiplex assay against U2OS
Type: toxicity, cell-based
Conditions: human, 48 h, 10 µM, compound concentration 10 uM, replicate 1
observed-property: Population Mitotic Cells (%)
Number in %, nothing else.

Q: Specify the recorded Population Mitotic Cells (%) for COc1cc(C(=O)N(CCCc2ccccc2)Cc2ccc(CC(=O)O)cc2)cc(OC)c1C , system: U2OS.
Ans: 6

Q: Give Population Mitotic Cells (%) only, for CSc1ccccc1N1CCN(CCCCCC(=O)NC2CCCc3ccccc32)CC1.Cl (stereo not given) , using U2OS data.
Ans: 1

Q: Jot down Population Mitotic Cells (%) (U2OS) of c1cc(OCCCN2CCCCC2)ccc1CN1CCCCC1 .
Ans: 13

Q: Fill in Population Mitotic Cells (%) for Cc1ccc(/C(=C\CN2CCCC2)c2ccccn2)cc1 tested with U2OS.
Ans: 13

Q: Provide Population Mitotic Cells (%), system U2OS, entry C[C@H](NC(=O)c1c(C(F)F)nn(C)c1Oc1cccc(C(F)(F)F)c1)c1ccc(C(=O)O)cc1
Ans: 8

---

System: Fibroblast
Test: Multiplex assay against human fibroblast
Assay type: toxicity, cell-based
Details: 48 h, 10 µM, compound concentration 10 uM, replicate 2
observed-property: Population Mitochondria Different-Phenotype (%)
Answer format: numeric, % implied, no suffix.

Q: Find Population Mitochondria Different-Phenotype (%) for CNC[C@H](O)c1ccc(O)c(O)c1 [EPINEPHRINE] on Fibroblast and write it down.
Ans: 3

Q: Check Fibroblast data and give Population Mitochondria Different-Phenotype (%) for Oc1c(CN2CCN(c3ccccn3)CC2)cc(Cl)c2cccnc12 .
Ans: 7

Q: Report value: Population Mitochondria Different-Phenotype (%), system: Fibroblast, compound: COc1c(C)cc(NC(=O)c2nn(Cc3ccc(F)cc3)c3c2CN(C(=O)c2ccc[nH]2)C[C@]3(C)C(N)=O)cc1C
Ans: 16

Q: Identify measured Population Mitochondria Different-Phenotype (%) obtained with Fibroblast for CSCC[C@H](NC=O)C(=O)N[C@@H](CC(C)C)C(=O)N[C@@H](Cc1ccccc1)C(=O)O .
Ans: 1

Q: Write Population Mitochondria Different-Phenotype (%) of Cl.Clc1ccc2nsnc2c1NC1=NCCN1 [TIZANIDINE HYDROCHLORIDE] ; system used: Fibroblast
Ans: 11

Q: Given C[C@H]1[C@H]2CC[C@H]3[C@@H]4CC=C5C[C@@H](N(C)C)CC[C@]5(C)[C@H]4CC[C@]23CN1C , report its Population Mitochondria Different-Phenotype (%) on Fibroblast.
Ans: 6

Q: Provide Population Mitochondria Different-Phenotype (%), system Fibroblast, entry CN(C)c1ccnc2sc3c(=O)n(N4CCCCCC4)cnc3c12
Ans: 13

Q: Supply Population Mitochondria Different-Phenotype (%) measured with Fibroblast for CN1CCN(c2nc3cc(C(F)(F)F)ccc3n3cccc23)CC1.O=C(O)/C=C\C(=O)O.O=C(O)/C=C\C(=O)O .
Ans: 23

Q: State Population Mitochondria Different-Phenotype (%) on Fibroblast. Entry: CC[C@H]1OC(=O)[C@H](C)[C@@H](O[C@H]2C[C@@](C)(OC)[C@@H](O)[C@H](C)O2)[C@H](C)[C@@H](O[C@@H]2O[C@H](C)C[C@H](N(C)C)[C@H]2O)[C@@]2(C)CC(C)=C(O2)[C@H](C)[C@@H](O)[C@]1(C)O
Ans: 8

Q: Enter recorded Population Mitochondria Different-Phenotype (%) with Fibroblast for C[C@@H]1C[C@H]2[C@@H]3CCC4=CC(=O)C=C[C@]4(C)[C@@]3(F)[C@@H](O)C[C@]2(C)[C@@]1(O)C(=O)CO here.
Ans: 0

Q: Please respond with reported Population Mitochondria Different-Phenotype (%) (system Fibroblast) for CN(C)CCCc1cc(C(=O)Nc2ccc(-c3ccncc3)cc2)ccc1O.Cl.Cl .
Ans: 2

Q: Check Fibroblast data and give Population Mitochondria Different-Phenotype (%) for CC(C)(C)c1ccc(S(=O)(=O)Nc2ccc(Cl)cc2C(=O)c2cc[n+]([O-])cc2)cc1 .
Ans: 12

Q: // fetch Population Mitochondria Different-Phenotype (%); item: CCCn1c(=O)c2[nH]c(C3CCCC3)nc2n(CCC)c1=O ; system: Fibroblast
Ans: 8

Q: Fetch value of Population Mitochondria Different-Phenotype (%) on Fibroblast for O=C(NCCO)c1cccc(-c2cc(Nc3ccc(OC(F)(F)F)cc3)ncn2)c1 .
Ans: 19

Q: Enter Population Mitochondria Different-Phenotype (%) (test system Fibroblast) for O=C1COc2nccc(-c3ccccc3F)c2CN1Cc1cc(C(F)(F)F)cc(C(F)(F)F)c1
Ans: 8

Q: // output Population Mitochondria Different-Phenotype (%); input COc1cc(NC(=O)CCN2CCC(OC(=O)Nc3ccccc3-c3ccccc3)CC2)c(Cl)cc1CNC[C@H](O)c1ccc(O)c2[nH]c(=O)ccc12 ; system Fibroblast
Ans: 15
